Biological target: Intestinal-type alkaline phosphatase (Homo sapiens)
Assay: human IAP inhibitors, confirmation, biochemical, luminescence, single concentration, uHTS hits (AID 434927);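 also: plate controls were DMSO wells with enzyme for no effect and wells lacking enzyme for full effect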
Details: purified human IAP, CDP-Star luminescence, 30 min; at 8.3 µM
The source made the active and inactive calls.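 The calls were made as follows: active = inhibition above about 23% in any of six single-dose repeats (limit read from the data); inactive = the rest.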
Classes used: Y (active), N (inactive)

| Molecule | Target or test system | Group label |
| --- | --- | --- |
| O=C(Nc1cccc(-c2cccc(F)c2)c1)C1CCN(C2CCC2)CC1 | Intestinal-type alkaline phosphatase (Homo sapiens) | Y |
| CCOc1ccccc1CN1CCC(n2nccc2NC(=O)CCc2ccccc2)CC1 | Intestinal-type alkaline phosphatase (Homo sapiens) | Y |
| O=C(CCN1CCN(Cc2ccccc2)CC1)NNC(=O)Nc1cccc(C(F)(F)F)c1 | Intestinal-type alkaline phosphatase (Homo sapiens) | N |
| O=C(NNC(=S)NC(=O)c1ccccc1)c1cccnc1 | Intestinal-type alkaline phosphatase (Homo sapiens) | N |
| O=C(NCCCN1CCOCC1)c1ccc2c(c1)N(Cc1ccc(Cl)cc1)C(=O)c1ccccc1S2=O (configuration not stated) | Intestinal-type alkaline phosphatase (Homo sapiens) | N |
| Nc1c(N2CCCC2)cc(Cl)c2nonc12 | Intestinal-type alkaline phosphatase (Homo sapiens) | Y |
| COc1ccccc1CNC(=O)CN(c1ccc(C)cc1)S(=O)(=O)c1c(C)noc1C | Intestinal-type alkaline phosphatase (Homo sapiens) | Y |
| CCCn1c(/C=C/c2ccccc2)nc2ccccc21 | Intestinal-type alkaline phosphatase (Homo sapiens) | Y |
| N#Cc1c(-c2ccccc2)nc(N2CCOCC2)[nH]c1=O | Intestinal-type alkaline phosphatase (Homo sapiens) | Y |
| CCOC(=O)c1c(C)[nH]c(C(=O)N/N=C/c2cc([N+](=O)[O-])ccc2O)c1C | Intestinal-type alkaline phosphatase (Homo sapiens) | Y |
| Cc1cccc(NS(=O)(=O)c2cccc(C(=O)NNC(=O)c3ccccc3O)c2)c1 | Intestinal-type alkaline phosphatase (Homo sapiens) | Y |
| Cc1c(C(=O)N/N=C/c2c(O)ccc3ccccc23)nnn1-c1nonc1N | Intestinal-type alkaline phosphatase (Homo sapiens) | N |
| CCN(CC)c1ccc(N=Nc2nn(C)c(C)c2[N+](=O)[O-])cc1 | Intestinal-type alkaline phosphatase (Homo sapiens) | Y |
| O=C(NC(=S)NNC(=O)c1ccccc1O)c1ccc(F)cc1 | Intestinal-type alkaline phosphatase (Homo sapiens) | Y |
| CN(Cc1ccccc1)C(=O)Nc1ccc(Cl)cc1 | Intestinal-type alkaline phosphatase (Homo sapiens) | N |
| Cc1nc(Nc2nc3c(c(=O)[nH]2)CCC3)nc2ccccc12 | Intestinal-type alkaline phosphatase (Homo sapiens) | N |
| O=C(COc1ccc2ccccc2c1Br)N1CCCCC1 | Intestinal-type alkaline phosphatase (Homo sapiens) | N |
| O=C(/C=C/c1ccc(O)cc1)c1ccc(NC2=C(N3CCCCC3)C(=O)c3ccccc3C2=O)cc1 | Intestinal-type alkaline phosphatase (Homo sapiens) | N |
| Cc1cc(C(=O)NNC(=O)COc2c(C)cc(Br)cc2C)n[nH]1 | Intestinal-type alkaline phosphatase (Homo sapiens) | N |
| Cc1ccc(-n2ncc3c(NNC(=O)c4ccco4)ncnc32)cc1C | Intestinal-type alkaline phosphatase (Homo sapiens) | Y |
| Cc1[nH]n(-c2nc(-c3ccccc3)cc(=O)[nH]2)c(=O)c1CCO | Intestinal-type alkaline phosphatase (Homo sapiens) | Y |
| COc1cccc(/C=N/Nc2nc(-c3cccnc3)nc3ccccc23)c1 | Intestinal-type alkaline phosphatase (Homo sapiens) | N |

----------
Biological target: Intestinal-type alkaline phosphatase (Homo sapiens)
Test: human IAP inhibitors, confirmation, biochemical, luminescence, single concentration, uHTS hits (AID 434927);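 also: plate controls were DMSO wells with enzyme for no effect and wells lacking enzyme for full effect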
Details: purified human IAP, CDP-Star luminescence, 30 min; at 8.3 µM; stronger effect = higher value
Binary call on inhibition: MET from -60% upward, NOT MET beneath that.

| Compound | Group label |
| --- | --- |
| CCOc1cc(/C=N/NC(=O)C(=O)N/N=C/c2ccc(O)c(OCC)c2)ccc1O | MET |
| Cc1ccc(NC(=O)NNC(=O)c2cc3ccccc3cc2O)cc1 | NOT MET |
| N#CCN1C(=S)N=C(Nc2cccc(Cl)c2)C12CCCCC2 | MET |
| Cc1nn(C)c(C(=O)NNC(=S)NCc2ccccc2)c1Cl | NOT MET |
| COc1ccc(CC2CC(=O)N(c3ccc(C)cc3)C2=O)cc1 (stereo not drawn) | MET |
| COc1ccc(C2=Nc3cc(C)ccc3OC2)cc1 | MET |
| CCOC(=O)c1cnc(SCC(=O)c2ccccc2)nc1N | NOT MET |
| Cc1cc2cc3c(cc2nc1SCC(=O)Nc1nc(C)c(C)s1)OCO3 | MET |
| CC(C)(C)N/N=C/c1c(O)n(-c2ccc(Cl)cn2)c(=O)c2ccccc12 | NOT MET |
| CN(C)S(=O)(=O)c1cccc(NC(=S)NNC(=O)c2cc3ccccc3cc2O)c1 | MET |
| Cc1cc(Br)ccc1SCC(=O)OC/C(O)=C(\C#N)c1nc2ccccc2[nH]1 | NOT MET |
| Cc1ccsc1C(=O)NNC(=S)NC1CCCCC1 | MET |
| Cc1ccc(S(=O)(=O)NCCC(=O)NNC(=O)COc2ccc(Br)cc2)cc1C | MET |
| O=C(N/N=C/c1ccc2cccnc2c1)c1nc2ccccc2c(=O)[nH]1 | NOT MET |
| COc1cccc(/C=N\NC(=O)C2=NNC(=O)C2C)c1O (stereo not drawn) | MET |
| CCOC(=O)c1c(NC(=O)Cn2cc([N+](=O)[O-])cn2)sc2c1CCC2 | NOT MET |
| O=C(CCNS(=O)(=O)c1ccccc1C(F)(F)F)NNC(=O)c1csc(N2CCOCC2)n1 | MET |
| CN(CC(=O)Nc1ccccc1F)CC(=O)Nc1ccc(F)c(F)c1F | MET |
| CCC1CCCCN1C1Sc2ccc(C(=O)OC)cc2NC1=O (stereo not drawn) | NOT MET |
| COc1cc(Cl)ccc1OCc1cc(C(=O)N2CCCCCCC2)no1 | MET |
| Cc1ccccc1CNC(=O)c1ccccc1N | MET |
| CC1=NN(Cc2ccccc2)C(=O)/C1=C\c1ccc(N(C)C)cc1 | MET |

----------
Target: Intestinal-type alkaline phosphatase (Homo sapiens)
Assay: human IAP inhibitors, confirmation, biochemical, luminescence, single concentration, uHTS hits (AID 434927);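 also: plate controls were DMSO wells with enzyme for no effect and wells lacking enzyme for full effect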
Details: purified human IAP, CDP-Star luminescence, 30 min; at 8.3 µM; stronger effect = higher value
Measurement type: inhibition (%)

| Molecule | Target or test system | Unit of measurement | Assay result |
| --- | --- | --- | --- |
| N#Cc1cc(Oc2ccccc2)c(-n2nnc3ccccc32)cc1C#N | Intestinal-type alkaline phosphatase (Homo sapiens) | % | 40.7 |
| COc1cc(CN2CCC(n3nccc3NC(=O)CCCc3ccccc3)CC2)ccc1F | Intestinal-type alkaline phosphatase (Homo sapiens) | % | 40.7 |
| COc1ccc(NC(=O)CCN2CCN(S(=O)(=O)c3cc(Cl)ccc3OC)CC2)cc1 | Intestinal-type alkaline phosphatase (Homo sapiens) | % | 35.6 |
| CN(C)c1ccc(N=Nc2ccccc2Br)cc1 | Intestinal-type alkaline phosphatase (Homo sapiens) | % | -104 |
| Cc1ccc2c(c1)nnc1nnc(SCC(=O)O)n12 | Intestinal-type alkaline phosphatase (Homo sapiens) | % | 33.9 |
| NC(=O)c1ccc(NC(=O)C2CCCC2)cc1 | Intestinal-type alkaline phosphatase (Homo sapiens) | % | -40.2 |
| Cn1nnnc1N=N/C(=N/Nc1ccccc1)c1ccccc1 | Intestinal-type alkaline phosphatase (Homo sapiens) | % | 54.9 |
| Cc1[nH]n(-c2nc(-c3ccccc3F)cc(=O)[nH]2)c(=O)c1CCO | Intestinal-type alkaline phosphatase (Homo sapiens) | % | -39.7 |
| CCc1nnc(NC(=O)CSc2nnc(C)c(=O)n2N)s1 | Intestinal-type alkaline phosphatase (Homo sapiens) | % | 41.3 |
| Cc1ccc(NC(=O)c2ccncc2)cc1[N+](=O)[O-] | Intestinal-type alkaline phosphatase (Homo sapiens) | % | 53.7 |
| O=c1c2cc(O)c(O)cc2oc2cc(O)c(C3OC(CO)C(O)C(O)C3O)c(O)c12 (configuration not stated) | Intestinal-type alkaline phosphatase (Homo sapiens) | % | -148 |
| O=C(N/N=C/c1cccc([N+](=O)[O-])c1)c1nc2ccccc2c(=O)[nH]1 | Intestinal-type alkaline phosphatase (Homo sapiens) | % | 33.3 |

----------
Molecular target: Intestinal-type alkaline phosphatase (Homo sapiens) (UniProt P09923)
Sequence (P09923 whole entry, looked up): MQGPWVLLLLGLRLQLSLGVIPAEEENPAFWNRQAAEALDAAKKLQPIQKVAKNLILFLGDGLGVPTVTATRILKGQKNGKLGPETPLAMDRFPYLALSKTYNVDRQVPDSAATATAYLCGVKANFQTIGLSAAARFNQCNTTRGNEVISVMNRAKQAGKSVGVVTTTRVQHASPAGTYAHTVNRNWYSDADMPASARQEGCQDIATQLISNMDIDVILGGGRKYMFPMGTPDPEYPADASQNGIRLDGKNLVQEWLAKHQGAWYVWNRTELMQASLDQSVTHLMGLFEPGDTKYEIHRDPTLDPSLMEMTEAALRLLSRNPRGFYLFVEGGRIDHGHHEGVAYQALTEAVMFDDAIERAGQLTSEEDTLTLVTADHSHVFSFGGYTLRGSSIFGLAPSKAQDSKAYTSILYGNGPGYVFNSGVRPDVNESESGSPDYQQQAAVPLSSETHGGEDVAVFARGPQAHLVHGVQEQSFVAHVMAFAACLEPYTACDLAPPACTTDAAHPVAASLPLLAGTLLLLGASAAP
Assay: human IAP inhibitors, confirmation, biochemical, luminescence, single concentration, uHTS hits (AID 434927);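 also: plate controls were DMSO wells with enzyme for no effect and wells lacking enzyme for full effect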
Details: purified human IAP, CDP-Star luminescence, 30 min; at 8.3 µM
Activity calls are given as the source filed them.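 How the source made its calls: active means inhibition above about 23% in any of six single-dose repeats (limit read from the data); inactive means the rest.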
Labels: active, inactive

| Compound | Group label |
| --- | --- |
| CCCOCC(O)CC(CC)C(=O)NNC(=S)Nc1ccccc1 (stereo unspecified) | inactive |
| COc1ccc(C2=NN(C3=NN=C(N)Cc4ncnn43)C(O)(C(F)(F)F)C2)cc1 (stereo unspecified) | active |
| CCC(NC(=S)NC1CCCCC1)c1ccc(C(C)C)cc1 (stereo unspecified) | inactive |
| CC(=O)Nc1cccc(-c2csc(Nc3ccccn3)n2)c1 | inactive |
| O=C(CCN1C(=O)/C(=C/c2ccccc2Cl)SC1=S)NNC(=O)c1ccccc1O | active |
| CCOc1cccc(-c2nc(C(N)=O)c3[nH]c(=O)n(-c4cccc(Cl)c4)c3n2)c1O | inactive |
| Cc1ccc(O)c(N/C=C/C(=O)c2ccc(F)cc2)c1 | inactive |
| O=C(CN1CCN(C(=O)N2CCCCC2)CC1)Nc1ccc(F)cc1 | inactive |
| COc1cccc(-c2nc(CS(=O)(=O)CC(=O)Nc3cc(OC)ccc3OC)c(C)o2)c1 | active |
| C/C(=N/NC(=O)c1ccc(Cn2cccn2)o1)c1cccc(NC(=O)c2ccncc2)c1 | inactive |
| CCn1c(C)nc2cc(C(=O)N/N=C/c3cccc(O)c3O)ccc21 | inactive |
